The measured values listed here are drawn from patent US11123311B2.

Assay: experimental logP
Assay type: physicochemical
Conditions: read-out: Exp/ logP
readout-name: logP

>>> test_result("CC(C)C(=O)N1CCC(NC(=O)Nc2ccc(OC(F)(F)F)cc2)CC1")
3.37

Exercise: logP lookup needed for O=C(Nc1ccc(OC(F)(F)F)cc1)NC1CCN(C(=O)C2(C(F)(F)F)CC2)CC1 , thanks.
Key: 4.63

Exercise: logP lookup needed for CC[C@H](C)C(=O)N1CCC(NC(=O)Nc2ccc(C(F)(F)F)nc2)CC1 , thanks.
Key: 3.22

* * *

Experiment: in vivo
Conditions: mouse, po, 3 mg/kg, half-life in the cerebral cortex, 3 mg/kg PO, mice
readout-name: half-life (h)
Provide only the numeric value, understood in h.

Exercise: half-life lookup needed for CCC(=O)N1CCC(NC(=O)Nc2ccc(OC(F)(F)F)cc2)CC1 , thanks.
Key: 10.7

* * *

Experiment: in vivo
Settings: mouse, po, 3 mg/kg, half-life in the blood (plasma), 3 mg/kg PO, mice
readout-name: half-life (h)
Provide only the numeric value, understood in h.

Exercise: half-life lookup needed for CCC(=O)N1CCC(NC(=O)Nc2ccc(OC(F)(F)F)cc2)CC1 [TPPU] , thanks.
Key: 17.8
